In this section, each of the substances is paired with its reported % KD (vs QNeg) L/9lacZ.
Test system: LacZ gene (bacterial galactosidase) in 9L/LacZ cells
Protocol notes: In vitro assay for LacZ gene expression knockdown in 9L cells
Experimental setup: N:P ratio 4, β-galactosidase assay day 3 post transfection
Primed or numbered codes have the meaning given here. No end group written: not given here. C20 = lipophilic group with a 20-carbon chain; PEG27′ = polyethylene glycol, 27 units; cysteamide = C-terminal cysteamide; C16 = N-terminal C16 lipid; C18 = N-terminal C18 lipid; C18″ = C18 lipid
Result type: % KD (vs QNeg) L/9lacZ (%)

Ac-GALFLGFLGAAGSTMGAWSQPKSKRKV-amide (Ac-GALFLGFLGAAGSTMGAWSQPKSKRKV-NH2) = −1.6
(C16)-HHHHHKHHHKKKHKHKKK-Cysteamide (C16-HHHHHKHHHKKKHKHKKK-cysteamide) = 12.4
Ac-LIRLWSHLIHIWFQNRRLKWKKK-amide (Ac-LIRLWSHLIHIWFQNRRLKWKKK-NH2) = −4.5
(C18)-HHHHHKHHHKKKHKHKKK-cysteamide (C18-HHHHHKHHHKKKHKHKKK-cysteamide) = −19.4
(C18)-PEG27-HHHHHHHHRRRRRRRR-amide ({C18″-PEG27′}-HHHHHHHHRRRRRRRR-NH2) = −16.1
(C20)-(H)8(R)8(H)8K-NH-(C20) (C20-HHHHHHHHRRRRRRRRHHHHHHHHK(C20)) = 57.5
Ac-GALFLAFLAAALSLMGLWSQPKSKRKV-Cysteamide (Ac-GALFLAFLAAALSLMGLWSQPKSKRKV-cysteamide) = −9.3
